Below, each of the binders is paired with its reported % Retained 55° C. value.
target: T1, TRCW5 antigen (CD3δε-Fc-Avi) (biotinylated (site not stated)); test: binding after heat
T1 construct: also called recombinant CD3
T1 sequence (chain, as listed by the source mutant limits assumed): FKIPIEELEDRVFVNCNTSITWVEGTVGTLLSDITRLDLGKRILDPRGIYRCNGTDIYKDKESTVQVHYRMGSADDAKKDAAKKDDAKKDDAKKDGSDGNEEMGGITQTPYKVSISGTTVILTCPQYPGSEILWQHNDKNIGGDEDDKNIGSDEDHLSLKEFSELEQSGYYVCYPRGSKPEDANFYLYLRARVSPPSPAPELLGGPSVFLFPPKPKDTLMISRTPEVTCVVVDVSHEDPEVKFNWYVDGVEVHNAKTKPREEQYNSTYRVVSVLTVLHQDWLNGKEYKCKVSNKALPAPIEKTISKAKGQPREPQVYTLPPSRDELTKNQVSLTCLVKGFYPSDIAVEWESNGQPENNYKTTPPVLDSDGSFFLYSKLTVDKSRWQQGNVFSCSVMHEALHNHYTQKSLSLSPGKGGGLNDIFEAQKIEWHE
Enter your answer as a number in %; do not include the unit.

Record excerpt, results attached:
BINDER | RECORDED_NUMBER
CD3B2030 N106F (scFv) scFv: QVQLVQSGAEVKKPGSSVKVSCKASGYTFTRSTMHWVKQAPGQGLEWIGYINPSSAYTNYNQKFQGRVTLTADKSTSTAYMELSSLRSEDTAVYYCASPQVHYDYFGFPYWGQGTLVTVSSGGSEGKSSGSGSESKSTGGSEIVLTQSPATLSASPGERVTLSCSASSSVSYMNWYQQKPGQAPRRWIYDSSKLASGVPARFSGSGSGRDYTLTISSLEPEDFAVYYCQQWSRNPPTFGGGTKVEIK | 106
CD3B2030 N106R (scFv) scFv: QVQLVQSGAEVKKPGSSVKVSCKASGYTFTRSTMHWVKQAPGQGLEWIGYINPSSAYTNYNQKFQGRVTLTADKSTSTAYMELSSLRSEDTAVYYCASPQVHYDYRGFPYWGQGTLVTVSSGGSEGKSSGSGSESKSTGGSEIVLTQSPATLSASPGERVTLSCSASSSVSYMNWYQQKPGQAPRRWIYDSSKLASGVPARFSGSGSGRDYTLTISSLEPEDFAVYYCQQWSRNPPTFGGGTKVEIK | 107

Req: Note % Retained 55° C. for the binder shown: CD3B2089 N106T (scFv) scFv: QVQLVQSGAEVKKPGSSVKVSCKASGYTFTRSTMHWVRQAPGQGLEWMGYINPSSAYTNYAQKFQGRVTLTADKSTSTAYMELSSLRSEDTAVYYCASPQVHYDYTGFPYWGQGTLVTVSSGGSEGKSSGSGSESKSTGGSEIVLTQSPATLSASPGERVTLSCSASSSVSYMNWYQQKPGQAPRRWIYDSSKLASGVPARFSGSGSGRDYTLTISSLEPEDFAVYYCQQWSRNPPTFGGGTKVEIK
Resp: 108
